B1: CRYL1 (parent)
chain: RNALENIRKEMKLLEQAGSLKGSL

Variants of: B1
Test Method Notes: protein stability index of a GFP-peptide fusion (GPS, HEK-293T) (PSI 1-6); higher = more stable;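 further: lentivirally expressed fusions sorted by FACS into six bins by GFP to DsRed ratio, PSI derived from sequencing read proportions per bin multiplied by bin number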
Condition Details: c terminus: a fixed tail appended
Classification field: enter Yes for protein stability index values not below 3, No for values below it.

Mutant Designation: I7M
Group Label: Yes
--
Mutant Designation: G18K
Group Label: Yes
--
Mutant Designation: N6I
Group Label: No
--
Mutant Designation: N2S
Group Label: No
--
Mutant Designation: L14E
Group Label: Yes
--
Mutant Designation: A17G
Group Label: Yes
--
Mutant Designation: K12E
Group Label: Yes
--
Mutant Designation: A17L
Group Label: Yes
--
Mutant Designation: E5H
Group Label: No
--
Mutant Designation: S23K
Group Label: Yes
--
Mutant Designation: L24W
Group Label: Yes
--
Mutant Designation: M11G
Group Label: Yes
--
Mutant Designation: E15L
Group Label: No
--
Mutant Designation: N2H
Group Label: Yes
--
Mutant Designation: E15F
Group Label: No
--
Mutant Designation: L13Q
Group Label: Yes
--
Mutant Designation: R1P
Group Label: Yes
--
Mutant Designation: E10G
Group Label: No
--
Mutant Designation: L20M
Group Label: No
--
Mutant Designation: S23L
Group Label: No
--
Mutant Designation: S23G
Group Label: Yes
--
Mutant Designation: Q16H
Group Label: Yes
--
Mutant Designation: G22I
Group Label: No
--
Mutant Designation: S19M
Group Label: No
--
Mutant Designation: I7W
Group Label: Yes
--
Mutant Designation: Q16V
Group Label: No
--
Mutant Designation: L4S
Group Label: Yes
--
Mutant Designation: K9P
Group Label: Yes
--
Mutant Designation: E10Q
Group Label: No
--
Mutant Designation: L4N
Group Label: Yes
--
Mutant Designation: L14M
Group Label: No
--
Mutant Designation: G18I
Group Label: No
--
Mutant Designation: K21L
Group Label: No
--
Mutant Designation: S19W
Group Label: No
--
Mutant Designation: R8H
Group Label: Yes
--
Mutant Designation: R8C
Group Label: No
--
Mutant Designation: I7P
Group Label: Yes
--
Mutant Designation: G22F
Group Label: No
--
Mutant Designation: R8G
Group Label: Yes
--
Mutant Designation: R1S
Group Label: Yes
--
Mutant Designation: E10N
Group Label: No
--
Mutant Designation: N6L
Group Label: No
--
Mutant Designation: S19K
Group Label: Yes
--
Mutant Designation: L4W
Group Label: Yes
--
Mutant Designation: K9G
Group Label: Yes
